Each item that follows carries a reported koff.
target: T1, Vaccinia Virus, Western Reserve, L1R Protein with C-Terminal Histidine Tag (Vaccinia virus, strain Western Reserve, UniProt P07612); test: SPR; […] (10 µg/ml, […], dissociation 600 s; […]; conditions: both partners purified
T1 construct: also called L1 antigen; recombinant L1 antigen; source: obtained through BEI Resources (NR-2625), recombinant from baculovirus
Please reply with the bare figure in s⁻¹ and do not write the unit itself.

| binder | readoutValue |
| --- | --- |
| L1-C5 (VHH, llama sdAb of the L1-H7 family; has a single N to Y substitution in framework 3 not seen in other members of the family; also called sdAb L1-C5) VHH: EVQLQASGGGLVQAGGSLRLSCIASGRAFSTTNMGWFRQAPGKEREFVTRVNWSGGVTSYADSVKGRFTLSRDYTKNTVYLQMNSLKPEDTAVYYCAGSTVWSTDRAHYNYWGQGTQVTVSS | 0.032 |

Please turn your attention to the following entry.
Challenge: Which koff is reported for this binder? L1-G2+ (VHH, also called disulfide mutant of L1-G2) VHH: EVQLQASGGGLVQAGGSLRLSCTASGRAFSTTNMGWFRQAPGKEREFVCRVNWSGGVTSYADSVKGRFTCSRDNTKNTVYLQMDSLKPEDTAVYYCAGSTVWSTDRKHYNYWGQGTQVTVSS
Response given: 0.0021
